These entries and their values trace back to the MegaScale stability set (Tsuboyama et al. 2023).

B1: 5KPH (parent)
chain: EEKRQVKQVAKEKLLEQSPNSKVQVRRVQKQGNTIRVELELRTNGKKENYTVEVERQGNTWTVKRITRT

variants of: B1; assay: folding stability dG (cDNA display proteolysis); higher = more stable; conditions: PBS, room temperature
Hi, to clarify the labels: 1.0 covers folding stability dG from 3 kcal/mol upward, 0.0 covers anything below 3 kcal/mol.

Prompt line: Can EEKRQVKQVAKEKLLEQSPNSKVQVRRVQKQGNTERVELELRTNGKKENYTVEVERQGNTWTVKRITRT [I35E] be said to have folding stability dG at or above 3 kcal/mol?
Response line: 0.0

Prompt line: Can EEKRQVKQVAKEKLLEQSPNSKVQVRRVQKQGNTICVELELRTNGKKENYTVEVERQGNTWTVKRITRT [R36C] be said to have folding stability dG at or above 3 kcal/mol?
Response line: 1.0

Prompt line: Can EEKRQVKQVALEKLLEQSPNSKVQVRRVQKQGNTIRVELELRTNGKKENYTVEVERQGNTWTVKRITRT [K11L] be said to have folding stability dG at or above 3 kcal/mol?
Response line: 1.0

Prompt line: Can EEKRQVKQVQKEKLLEQSPNSKVQVRRVQKQGNTIRVELELRTNGKKENYTVEVERQGNTWTVKRITRT [A10Q] be said to have folding stability dG at or above 3 kcal/mol?
Response line: 0.0

Prompt line: Can EEKRQVKQVAKEKLLEQSPNSKVQVRRVQKQGNTIRVELELRTNGKKANYTVEVERQGNTWTVKRITRT [E48A] be said to have folding stability dG at or above 3 kcal/mol?
Response line: 1.0

Prompt line: Can EEKRQVKQVAKEKLLEQSPNSKVQVRRVQKQGNTIRVELELRTNGKKENYTVEVERQGNTWTVKRVTRT [I66V] be said to have folding stability dG at or above 3 kcal/mol?
Response line: 1.0

Prompt line: Can EEKRQVKQVAKEKLLEQSPNSKVQVRRVQKQGNTIRVLLELRTNGKKENYTVEVERQGNTWTVKRITRT [E38L] be said to have folding stability dG at or above 3 kcal/mol?
Response line: 1.0

Prompt line: Can EEKRQVKQVAKEWLLEQSPNSKVQVRRVQKQGNTIRVELELRTNGKKENYTVEVERQGNTWTVKRITRT [K13W] be said to have folding stability dG at or above 3 kcal/mol?
Response line: 1.0

Prompt line: Can EAKRQVKQVAKEKLLEQSPNSKVQVRRVQKQGNTIRVELELRTNGKKENYTVEVERQGNTWTVKRITRT [E2A] be said to have folding stability dG at or above 3 kcal/mol?
Response line: 1.0

Prompt line: Can EEKRQVKQVAKEKLLEQSPNSKVQVRRVQKQGNTIRVELELRTNGKKENYTVEVERPGNTWTVKRITRT [Q57P] be said to have folding stability dG at or above 3 kcal/mol?
Response line: 0.0
